Test: in vitro
Conditions: human, hela cells, % viability
I'd appreciate it if you marked entries rule met when viability at 28.5 h, 10 µM is lower than 90% and rule not met when it is not.

{"COMPOUND": "Cc1ncsc1C(=O)N1CCC(c2cccc(Cc3ccc(C(F)(F)F)cc3)n2)CC1", "GROUP": "rule not met"}
{"COMPOUND": "Cc1ccc(C(=O)Nc2cccc3cccnc23)cc1Br", "GROUP": "rule not met"}
{"COMPOUND": "Cc1nn(C)c(C)c1CCC(=O)N1CCc2ncc(Cl)cc2C1", "GROUP": "rule not met"}
{"COMPOUND": "CN1CCC(=NNC(=O)C(=O)NCc2ccco2)CC1", "GROUP": "rule met"}
{"COMPOUND": "CCCc1n[nH]c(C2CCCC2)c1C(=O)OCC", "GROUP": "rule met"}

input: Strictly below 90%: is that where viability at 28.5 h, 10 µM of `CC(=O)Nc1c(C#N)cnn1C` sits?
output: rule not met

input: Strictly below 90%: is that where viability at 28.5 h, 10 µM of `O=C(NCCN1CCCC1)c1ccc(Nc2cncc(-c3ccc(O)cc3)n2)c(Cl)c1` sits?
output: rule met

input: Strictly below 90%: is that where viability at 28.5 h, 10 µM of `CC(=O)Nc1ccc(-c2ccc(=O)n3c2[C@@H]2C[C@@H](CN(C4CCOCC4)C2)C3)cc1` sits?
output: rule not met

input: Strictly below 90%: is that where viability at 28.5 h, 10 µM of Cc1cnc2[nH]c(C(F)(F)F)c(CN3CCCC(CO)C3)c2c1 (stereo not shown) sits?
output: rule not met
